Taken from patent US20060122195A1.

Some molecules, each annotated with its measured melting point.

Example results:
| Molecule | melting point |
| --- | --- |
| COc1nc(SC[C@H](N)C(=O)O)cnc1NS(=O)(=O)c1cccc(Cl)c1Cl | 180 to 190 °C |
| COc1nc(SC[C@H](N)C(N)=O)cnc1NS(=O)(=O)c1cccc(Cl)c1Cl | 148 to 152 °C |
| CNC(=O)[C@@H](N)CSc1nc(OC)c(NS(=O)(=O)c2cccc(Cl)c2Cl)nc1C | 68 to 80 °C |
| COc1nc(SCC(O)c2cccnc2)cnc1NS(=O)(=O)c1cccc(Cl)c1Cl (centres unmarked) | 188 to 190 °C |
| COc1nc(SCC(N)c2nccs2)cnc1NS(=O)(=O)c1cccc(Cl)c1Cl (centres unmarked) | 168 to 169 °C |

What value of melting point has been reported for the following molecule? COc1nc(SC[C@H](N)CO)c(Cl)nc1NS(=O)(=O)c1cccc(Cl)c1Cl
255 to 256 °C

Given the molecule COc1nc(SCC(O)c2ccncc2)cnc1NS(=O)(=O)c1cccc(Cl)c1Cl (centres unmarked) , what is its reported melting point?
176 to 177 °C

melting point for COC(=O)[C@@H](N)CSc1nc(OC)c(NS(=O)(=O)c2cccc(Cl)c2Cl)nc1C ?
164 to 168 °C

###

Measured parameter: melting point

Answered examples (3):
| Molecule | Recorded measurement |
| --- | --- |
| COc1nc(SCC(O)c2ccccn2)cnc1NS(=O)(=O)c1cccc(Cl)c1Cl (stereo not shown) [Example 24] | 143 to 145 °C |
| COc1nc(SCC(N)c2nccn2C)cnc1NS(=O)(=O)c1cccc(Cl)c1Cl (stereo not shown) [Example 27] | 187 to 189 °C |
| COc1nc(SC[C@H](N)C(=O)O)c(Cl)nc1NS(=O)(=O)c1cccc(Cl)c1Cl [Example 9] | 170 to 173 °C |

Given the entry COC(=O)[C@@H](N)CSc1cnc(NS(=O)(=O)c2cccc(Cl)c2Cl)c(OC)n1 [Example 2] , report its measured melting point.
170 to 174 °C

###

// reported melting point per item

| Compound | melting point |
| --- | --- |
| COc1nc(SCC(N)c2cccnc2)cnc1NS(=O)(=O)c1cccc(Cl)c1Cl (stereo not drawn) | 175 to 178 °C |
| COc1nc(SCC(O)c2ccccc2)cnc1NS(=O)(=O)c1cccc(Cl)c1Cl (stereo not drawn) | 141 to 143 °C |
| COC(=O)[C@@H](N)CSc1nc(OC)c(NS(=O)(=O)c2cccc(Cl)c2Cl)nc1Cl | 170 to 173 °C |
| COc1nc(SC[C@H](N)C(=O)N(C)C)cnc1NS(=O)(=O)c1cccc(Cl)c1Cl | 187 to 190 °C |
| CNC(=O)[C@@H](N)CSc1nc(OC)c(NS(=O)(=O)c2cccc(Cl)c2Cl)nc1Cl | 150 to 155 °C |
| CNC(=O)[C@@H](N)CSc1cnc(NS(=O)(=O)c2cccc(Cl)c2Cl)c(OC)n1 | 160 to 164 °C |

What measured melting point goes with COc1nc(SCC(N)c2ccccn2)cnc1NS(=O)(=O)c1cccc(Cl)c1Cl (stereo not drawn) ?
172 to 174 °C

Value lookup for melting point; key = COC(=O)[C@@H](O)CSc1cnc(NS(=O)(=O)c2cccc(Cl)c2Cl)c(OC)n1
88 to 90 °C

Would you kindly share the measured melting point for COc1nc(SCC(O)CO)cnc1NS(=O)(=O)c1cccc(Cl)c1Cl (stereo not drawn) ?
136 to 138 °C
